These entries and their values trace back to patent US10759796B2.

test: in vitro; conditions: human, Caco-2, pH 7.4
measure: efflux ratio at 90 min, 10 μM

A selection of reference data follows.
Cc1cccnc1[C@@H]1CCC[C@H](c2nc3ccccn3c2CN2CCOCC2)N1C [Compound I-73]; 0.1 to 10
CNCCCc1c([C@@H]2CCC[C@H](c3ncccc3C)N2C)nc2ccccn12 (stereo in doubt) [Compound I-27]; 10 to 30
CCOCc1c([C@H]2CCC[C@@H](c3ncccc3Cl)N2C)nc2cccc(N3CCN(C)CC3)n12 [Compound I-117]; 0.1 to 10

Reported efflux ratio at 90 min, 10 μM of CC[C@@H](O)c1c([C@H]2CCC[C@@H](c3ncccc3C)N2C)nc2cccc(N3CCN(C)CC3)n12 [Compound I-139] : > 30

Reported efflux ratio at 90 min, 10 μM of Cc1cccnc1[C@@H]1CCC[C@H](c2nc3cccc(N4CCN(C)CC4)n3c2COC2CC2)N1C [Compound I-85] : 0.1 to 10

Reported efflux ratio at 90 min, 10 μM of Cc1cccnc1[C@@H]1CCC[C@H](c2nc3cccc(N4CCN(C)CC4)n3c2Br)N1C [Compound I-17] : 0.1 to 10

Reported efflux ratio at 90 min, 10 μM of Cc1cccnc1[C@@H]1CCC[C@H](c2cn3c(N4CCN(C)CC4)c(F)ccc3n2)N1C [Compound I-106] : 0.1 to 10

Reported efflux ratio at 90 min, 10 μM of Cc1cccnc1[C@@H]1CC(=O)C[C@H](c2cn3c(N4CCN(C)CC4)cccc3n2)N1C [Compound I-3] : 0.1 to 10

Reported efflux ratio at 90 min, 10 μM of Cc1cccnc1[C@@H]1CCC[C@H](c2cn3c(N4CCN(C5COC5)CC4)cccc3n2)N1C [Compound I-52] : 10 to 30
